Biological target: Heat shock factor protein 1 (Mus musculus)
Sequence (P38532 whole entry): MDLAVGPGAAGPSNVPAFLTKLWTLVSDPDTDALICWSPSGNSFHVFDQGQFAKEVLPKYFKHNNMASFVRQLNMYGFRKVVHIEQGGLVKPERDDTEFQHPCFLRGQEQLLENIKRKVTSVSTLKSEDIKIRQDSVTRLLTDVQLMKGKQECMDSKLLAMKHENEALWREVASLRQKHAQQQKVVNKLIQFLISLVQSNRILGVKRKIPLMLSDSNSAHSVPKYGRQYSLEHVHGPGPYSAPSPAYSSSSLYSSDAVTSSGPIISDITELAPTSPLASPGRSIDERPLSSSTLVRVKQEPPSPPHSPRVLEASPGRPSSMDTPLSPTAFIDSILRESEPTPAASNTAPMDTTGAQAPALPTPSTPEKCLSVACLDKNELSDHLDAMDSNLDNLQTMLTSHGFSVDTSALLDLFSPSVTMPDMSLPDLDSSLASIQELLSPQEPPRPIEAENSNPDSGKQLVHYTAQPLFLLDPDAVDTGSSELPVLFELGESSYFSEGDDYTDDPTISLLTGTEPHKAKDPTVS
Test: enhancement of HSF1-driven luciferase signal – cell-based, NIH3T3, luminescence, dose retest, confirmation (AID 435004);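 also: stress induced by proteasome inhibitor MG132 added 30 min after compound; luciferase reporter driven by HSF1 response element in NIH3T3 cells; actives raise luminescence as potentiators of the MG132 stress response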
Format: functional
Calls of active or inactive are those of the source. Rule as the data show it: actives have a measured EC50 and inactives only a lower limit.
Respond using exactly one of the listed classes: true (1) = active, false (0) = inactive

Asked: What did the test return for Cc1cc(NC(=O)CSc2nc3c(cc2C#N)CCC3)no1 ?
Given back: true (1)

Asked: Query: recorded result category for COc1cc(/C=C/[N+](=O)[O-])ccc1O in this test
Given back: true (1)

Asked: Could you check what this test reported for COc1ccc(C2NC(=O)CCC2[N+](=O)[O-])c(OC)c1 (configuration not stated) ?
Given back: false (0)

Asked: # fetch the recorded call for COc1ccc(C(=O)C2CCCN(Cc3ccc(C)s3)C2)c(OC)c1 (configuration not stated) here
Given back: false (0)

Asked: Can you look up the reported call for Cc1cc2oc(=O)cc(CSc3nc(N)cc(N)n3)c2cc1C for me?
Given back: false (0)

Asked: // param item: COC(=O)CC1C(=O)NCCN1C(=O)c1ccc(S(=O)(=O)N2CCOCC2)cc1 (configuration not stated) ; yields the recorded call
Given back: false (0)

Asked: Name the outcome recorded for Nc1nnc(SCc2c(F)cccc2Cl)s1 in the assay.
Given back: false (0)

Asked: For O=C1S/C(=C\c2ccc(N3CCOCC3)o2)C(=O)N1Cc1c(F)cccc1Cl , what call appears in the results of this test?
Given back: false (0)

Asked: Please share the test call associated with O=C(O)c1cccc(S(=O)(=O)N2CCC(n3nnc4cc(C(F)(F)F)ccc43)CC2)c1 .
Given back: false (0)

Asked: Each molecule tested received a call. Report the one for NC(=O)COc1ccccc1 .
Given back: false (0)

Asked: In this assay, the call recorded for O=C(/C=C/Sc1ccccc1)c1ccccc1 was what?
Given back: true (1)

Asked: Write down the call the test reported for this molecule. Item: CCc1cc(C(c2ccccc2OC)N2CCOCC2)c(NC(=O)c2ccccc2)s1 (configuration not stated)
Given back: true (1)
